Would you kindly list melting point for each of these compounds?

Returns the measured melting point for the input compound. Input: COc1ccc(Cn2cnc3ncnc(OCc4cccnc4)c32)cc1OC1CCCC1 143 to 145 °C

Item CCNc1nc(OCCCc2cc[n+]([O-])cc2)nc2c1ncn2Cc1ccc(OC)c(OC2CCCC2)c1 has what recorded melting point? 85 to 88 °C

Request the reported melting point associated with COc1ccc(Cn2cnc3c(N(C)C)nc(OCc4ccoc4)nc32)cc1OC1CCCC1 92 to 93 °C

Could you share which melting point value was measured for COc1ccc(Cn2c(C)nc3c(C)nc(OCc4cc(C)nn4C)nc32)cc1OC1CCCC1 ? 112 to 123 °C

May I ask what melting point has been recorded for COc1ccc(Cn2c(C)nc3c(C)nc(OCc4cc[n+]([O-])cc4)nc32)cc1OC1CCCC1 ? 157 to 158 °C

# melting point lookup, item COc1ccc(Cn2cnc3cnc(OCCCc4ccncc4)nc32)cc1OC1CCOC1 (centres unmarked) 128 to 130 °C

Bench note: what melting point did COc1ccc(Cn2cnc3ncnc(Oc4cccnc4)c32)cc1OC1CCCC1 show? 134 to 135 °C

Recorded melting point for COc1ccc(Cn2c(C)nc3c(C)nc(SCc4cccnc4)nc32)cc1OC1CCCC1 , please? 116 to 117 °C

# melting point lookup, item COc1ccc(Cn2c(C)nc3cnc(NCc4ccc(OCC(F)(F)F)nc4)nc32)cc1OC1CCCC1 125 to 127 °C

Would you mind telling me what melting point value was observed for COc1ccc(Cn2cnc3c(N(C)C)nc(NCc4cccnc4)nc32)cc1OC1CCCC1 ? 112 to 114 °C

Look up melting point for this compound: COc1ccc(Cn2c(C)nc3cnc(OCCCc4ccncc4)nc32)cc1OC1CCCC1 115 to 117 °C

Record request: melting point value, item CCNc1nc(Cl)nc2c1ncn2Cc1ccc(OC)c(OC2CCCC2)c1 129 to 131 °C

Which melting point reading was recorded for the compound COc1ccc(Cn2cnc3c(N(C)C)nc(OCCCc4ccncc4)nc32)cc1OC1CCCC1 ? 78 to 80 °C

Give its melting point value. Item: CCCNc1nc(OCCCc2ccncc2)nc2c1ncn2Cc1ccc(OC)c(OC2CCCC2)c1 130 to 131 °C

What value of melting point has been recorded for this entry: COc1ccc(Cn2cnc3c(C)nc(NCc4ccncc4)nc32)cc1OC1CCCC1 137 to 138 °C

Suppose we examine the compound COc1ccc(Cn2c(C)nc3c(C)nc(NCc4cccnn4)nc32)cc1OC1CCCC1 ; what melting point value has been reported? 164 to 166 °C

What value of melting point has been reported for the following compound? CCNc1nc(OCc2cccnn2)nc2c1ncn2Cc1ccc(OC)c(OC2CCCC2)c1 121 to 122 °C

----------
RECORDED_ENDPOINT: melting point

Given the entry CCNc1nc(OCCCc2ccncc2)nc2c1ncn2Cc1ccc(OC)c(OC2CCCC2)c1 [compound 83] , report its measured melting point. 127 to 128 °C

Which melting point value is on record for COc1ccc(Cn2cnc3cnc(NCc4cccs4)nc32)cc1OC1CCCC1 [compound 41] ? 141 to 142 °C

melting point for COc1ccc(Cn2cnc3c(N)nc(OCCCc4ccncc4)nc32)cc1OC1CCCC1 [compound 66] ? 152 to 153 °C

Report melting point for COc1ccc(Cn2c(C)nc3c(C)nc(OCc4ccncc4)nc32)cc1OC1CCCC1 [compound 95] please. 125 to 126 °C

For the molecule shown here, CNc1nc(OCCCc2ccncc2)nc2c1ncn2Cc1ccc(OC)c(OC2CCCC2)c1 [compound 72] , give the reported melting point. 138 to 140 °C
